B1: TPR t1 (parent)
chain: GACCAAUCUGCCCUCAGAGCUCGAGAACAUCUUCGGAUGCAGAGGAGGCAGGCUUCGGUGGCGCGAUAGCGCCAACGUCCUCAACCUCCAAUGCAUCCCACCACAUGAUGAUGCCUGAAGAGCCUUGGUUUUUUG

- Variants of: B1
- method: polymerase ribozyme fitness, log enrichment relative to wild type (log ratio); higher = more active; in vitro selection for triplet polymerase activity
The entries below are paired with their reported polymerase ribozyme fitness (log ratio).
Number only, no unit.

Solved entries:
- C4G A5G C53A C89A G113U C114U G122U U129G: -4.07
- A41U G52A C62U G117U: -5.18
- C20U C123A: -0.867
- G42A U129A: -3.37
- A24G G60A C80U C88A: -4.67
- G36A U81A U125A: -2.6

Query U14A G120A yields polymerase ribozyme fitness (log ratio) of -0.235

Measured polymerase ribozyme fitness (log ratio), G58A C114G : -3.37

Looking up C88G G120A U129A , I found its polymerase ribozyme fitness (log ratio) recorded as -1.48

What the record says about C53G C102A : polymerase ribozyme fitness (log ratio) is -2.97

Sample G19U C64U C124U ; polymerase ribozyme fitness (log ratio) observed: -2.27

The recorded polymerase ribozyme fitness (log ratio) for C8G U33C C64A U106A G120C is -6.76

Entry U33G U133G ; polymerase ribozyme fitness (log ratio) = -6.24

Entry G17A G77U U78A A118U ; polymerase ribozyme fitness (log ratio) = -4.97

Sure, the documented polymerase ribozyme fitness (log ratio) for G10A A27G G71A C86U is -3.87

Reported polymerase ribozyme fitness (log ratio) for G69U A103C was -1.85

get_value(item= G36A C72A C97U , readout=polymerase ribozyme fitness (log ratio)) returns 0.549

# variant A41U G71C ; its polymerase ribozyme fitness (log ratio) = -3.84

Entry C40G A111C — recorded polymerase ribozyme fitness (log ratio) = -0.485

Value of measured polymerase ribozyme fitness (log ratio) for the entry A16U G47U G52U G65U C115U G117C : -6.26

polymerase ribozyme fitness (log ratio) reading for G36C C86U : -1.65

Form field polymerase ribozyme fitness (log ratio), entry U78C U87C C115U : -0.381
